Reported Ki values for a set of compounds
- target-or-test-system: MCL-1 (Homo sapiens (Human))
- Sequence (Q07820 whole entry): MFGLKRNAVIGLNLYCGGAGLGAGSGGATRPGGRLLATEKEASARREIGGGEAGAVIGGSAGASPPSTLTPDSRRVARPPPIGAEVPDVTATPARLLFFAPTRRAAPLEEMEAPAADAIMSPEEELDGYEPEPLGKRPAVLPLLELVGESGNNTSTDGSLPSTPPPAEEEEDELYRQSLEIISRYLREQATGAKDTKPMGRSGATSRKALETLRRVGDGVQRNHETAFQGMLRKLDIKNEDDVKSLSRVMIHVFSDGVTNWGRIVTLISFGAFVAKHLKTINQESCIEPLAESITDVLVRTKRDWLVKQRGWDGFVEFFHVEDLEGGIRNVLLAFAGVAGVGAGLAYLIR
- measurement-description: Cell free Mcl-1:Bim affinity assay (fluorescence polarization competition)
- Type: binding
- measurement-parameters: 15 nM MCL-1, 5 nM FITC-Bim, 1 hour at room temperature; class symbols; read-out: BIM_Ki

# compound-smiles, Ki
rows = [
    ("COC(=O)N1C/C=C/[C@@H](OC)[C@@H]2CC[C@H]2CN2C[C@@]3(CCCc4cc(Cl)ccc43)COc3ccc(cc32)S(=O)(=O)NC(=O)C2(CCC2)C1", "1 to 100 nM"),
]

What Ki value was documented for this compound, "CCO[C@H]1CCN(C(=O)O[C@H]2/C=C/COC(C)(C)C(=O)NS(=O)(=O)c3ccc4c(c3)N(C[C@@H]3CC[C@H]32)C[C@@]2(CCCc3cc(Cl)ccc32)CO4)C1" ? < 1 nM

What Ki value was documented for this compound, "CO[C@@H]1/C=C/CC[C@@H](C)C(=O)NS(=O)(=O)c2ccc3c(c2)N(C[C@@H]2CC[C@H]21)C[C@@]1(CCCc2cc(Cl)ccc21)CO3" ? 1 to 100 nM

What Ki value was documented for this compound, "COCC[C@H]1C(=O)NS(=O)(=O)c2ccc3c(c2)N(C[C@@H]2CC[C@H]2[C@H](OC)/C=C/C[C@@H]1C)C[C@@]1(CCCc2cc(Cl)ccc21)CO3" ? 1 to 100 nM

What Ki value was documented for this compound, "CC1(C)OC/C=C/[C@H](OC(=O)N[C@@H]2CCOC2)[C@@H]2CC[C@H]2CN2C[C@@]3(CCCc4cc(Cl)ccc43)COc3ccc(cc32)S(=O)(=O)NC1=O" ? < 1 nM

* * *

- Test system: H929 cells
- measurement-description: Cell viability assay (H929 10 FBS)
- Type: cell-based
- measurement-parameters: Homo sapiens, NCI-H929, 24 hours, read-out: H929_10FBS IC50
Reported IC50 values for a set of compounds

Worked examples follow.
# compound, meas-value
rows = [
    ("CN(C)C(=O)O[C@@H]1/C=C/COC(C)(C)C(=O)NS(=O)(=O)c2ccc3c(c2)N(C[C@@H]2CC[C@H]21)C[C@@]1(CCCc2cc(Cl)ccc21)CO3 [Example 37]", "< 500 nM"),
    ("CCN1C/C=C/[C@H](OC(=O)N2CC(NC)C2)[C@@H]2CC[C@H]2CN2C[C@@]3(CCCc4cc(Cl)ccc43)COc3ccc(cc32)S(=O)(=O)NC(=O)C1(C)C [Example 223]", "< 500 nM"),
    ("C[C@H]1C(=O)NS(=O)(=O)c2ccc3c(c2)N(C[C@@H]2CC[C@H]2COCC(=O)N1C)C[C@@]1(CCCc2cc(Cl)ccc21)CO3 [Example 196]", "> 1000 nM"),
    ("CN1C/C=C/[C@H](OC(=O)N2CCC2)[C@@H]2CC[C@H]2CN2C[C@@]3(CCCc4cc(Cl)ccc43)COc3ccc(cc32)S(=O)(=O)NC(=O)C1(C)C [Example 216]", "< 500 nM"),
]

As a next step, examine the compound that follows.
Given the entry CC1(C)OC/C=C/[C@H](OC(=O)N2CCC2)[C@@H]2CC[C@H]2CN2C[C@@]3(CCCc4cc(Cl)ccc43)COc3ccc(cc32)S(=O)(=O)NC1=O [Example 174] , what IC50 was observed with H929 cells? < 500 nM
